Molecular target: human muscarinic M4 receptor (Homo sapiens)
Construct: expressed in transfected cells
Sequence (P08173 1-479): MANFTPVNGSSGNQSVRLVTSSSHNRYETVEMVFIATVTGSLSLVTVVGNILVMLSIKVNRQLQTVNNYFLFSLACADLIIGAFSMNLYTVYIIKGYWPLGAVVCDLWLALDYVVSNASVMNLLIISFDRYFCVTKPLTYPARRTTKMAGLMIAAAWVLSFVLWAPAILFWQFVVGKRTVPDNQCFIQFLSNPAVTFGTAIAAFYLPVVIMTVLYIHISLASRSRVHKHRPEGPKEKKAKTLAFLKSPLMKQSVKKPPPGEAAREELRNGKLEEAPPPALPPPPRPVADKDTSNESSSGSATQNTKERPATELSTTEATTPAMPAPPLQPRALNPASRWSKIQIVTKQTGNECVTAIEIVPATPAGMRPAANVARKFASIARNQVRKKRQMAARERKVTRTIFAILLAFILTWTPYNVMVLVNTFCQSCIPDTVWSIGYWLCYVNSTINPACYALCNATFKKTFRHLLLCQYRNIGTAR
Assay: Alphascreen Surefire phospho-ERK1/2 functional assay, M4
Assay type: cell-based
Details: CHO, read-out: % Emax cf. ACh (M4), CHO cells stably expressing human M4; relative to ACh
I'd appreciate it if you marked entries criterion met when Emax is lower than 80% and criterion not met when it is not.

{"COMPOUND": "CCOC(=O)N1CCC(N2C[C@@H]3[C@H](C2)[C@H]3C(=O)N(CC)CC)CC1", "ASSAYED_TARGET": "human muscarinic M4 receptor (Homo sapiens)", "LABEL": "criterion met"}
{"COMPOUND": "CCOC(=O)N1CC2(CC(N3C[C@@H]4[C@H](C3)[C@H]4c3csc(C)n3)C2)C1", "ASSAYED_TARGET": "human muscarinic M4 receptor (Homo sapiens)", "LABEL": "criterion met"}
{"COMPOUND": "CCOC(=O)[C@H]1[C@@H]2CN(C3CC4(C3)CN(C(=O)OCC)C4)C[C@@H]21", "ASSAYED_TARGET": "human muscarinic M4 receptor (Homo sapiens)", "LABEL": "criterion met"}
{"COMPOUND": "CCOC(=O)C1C2CN(C3CC4(CCN(C(=O)OCC)C4)C3)CC21 (mixture of isomers) [2-1 Mixture of isomers]", "ASSAYED_TARGET": "human muscarinic M4 receptor (Homo sapiens)", "LABEL": "criterion not met"}
{"COMPOUND": "CCOC(=O)N1CCC2(CC(N3CC4C(C3)C4N(CC)CC(F)(F)F)C2)C1 (mixture of isomers) [2-27 Mixture of isomers]", "ASSAYED_TARGET": "human muscarinic M4 receptor (Homo sapiens)", "LABEL": "criterion met"}

Q: Does the reported Emax of CCOC(=O)N1CCC2(CC(N3CC4C(C3)C4C(CC)=NOC)C2)C1 (single isomer, unassigned) [2-25 Isomer 2] stay below 80%?
Result: criterion met

Q: Consider CCOC(=O)N1CCC2(CC(N3CC4C(C3)C4C(=O)N3CCC34CC4)C2)C1 (single isomer, unassigned) [2-19 Isomer 2] . Does its Emax lie strictly below 80%?
Result: criterion not met

Q: Say whether its Emax is strictly beneath 80%. Entry: CCOC(=O)N1CCC2(CC(N3C[C@@H]4[C@H](C3)[C@H]4c3ccnn3C)C2)C1 (single isomer, unassigned) [2-29 Isomer 2]
Result: criterion not met
